B1: Intersectin-1, residues 909 to 971; numbered along this chain, Q15811 (parent)
chain: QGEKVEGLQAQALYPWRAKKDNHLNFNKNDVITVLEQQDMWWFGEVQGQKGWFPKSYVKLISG

- Variants of: B1
- protocol.details: abundance fitness (aPCA) (normalised: wild type 0, dead -1); higher = more abundant; growth selection in yeast, the domain comes from the species named
- experimental.setup: Homo sapiens
property: abundance fitness
I'd appreciate a reply containing only the number, no unit.

stdin: Find the measured abundance fitness of QGEKVEGHQAQALYPWRAKKDNHLNFNKNDVITVLEQQDMWWFGEVQGQKGWFPKSYVKLISG [L8H] and report it.
stdout: -0.361

stdin: Find the measured abundance fitness of QGEKVEGLQAQALSPWRAKKDNHLNFNKNDVITVLEQQDMWWFGEVQGQKGWFPKSYVKLISG [Y14S] and report it.
stdout: -0.233

stdin: Find the measured abundance fitness of QGEKVEGLQAQGLYPWRAKKDNHLNFNKNDVITVLEQQDMWWFGEVQGQKGWFPKSYVKLISG [A12G] and report it.
stdout: -0.404

stdin: Find the measured abundance fitness of QGEKVEGLQAQALYPWRAKKDNHLNFNKNDVITVLEQQDMWWFGEVQGQKGWFPKSYVKNISG [L60N] and report it.
stdout: -0.254

stdin: Find the measured abundance fitness of QGEKVEGLQAQALYPWRAKKDNHLNRNKNDVITVLEQQDMWWFGEVQGQKGWFPKSYVKLISG [F26R] and report it.
stdout: -1.01

stdin: Find the measured abundance fitness of QGEKVEGLQAQALYPWRAKKDNHLNFNKNDVITVLQQQDMWWFGEVQGQKGWFPKSYVKLISG [E36Q] and report it.
stdout: -0.344

stdin: Find the measured abundance fitness of QGEKVEGLQAQALYPWRAKKDNHLNFNKNDVITVLEQQDMRWFGEVQGQKGWFPKSYVKLISG [W41R] and report it.
stdout: -0.6

stdin: Find the measured abundance fitness of QGEKVAGLQAQALYPWRAKKDNHLNFNKNDVITVLEQQDMWWFGEVQGQKGWFPKSYVKLISG [E6A] and report it.
stdout: -0.139

stdin: Find the measured abundance fitness of QGEKVEGLQAQALYPWRAKKDWHLNFNKNDVITVLEQQDMWWFGEVQGQKGWFPKSYVKLISG [N22W] and report it.
stdout: -0.172

stdin: Find the measured abundance fitness of QGEKVEGLQAQALYPWRAKKDNTLNFNKNDVITVLEQQDMWWFGEVQGQKGWFPKSYVKLISG [H23T] and report it.
stdout: -0.207

stdin: Find the measured abundance fitness of QGEKVEGLQAQALYPWRAKKDNHLNFNKNDMITVLEQQDMWWFGEVQGQKGWFPKSYVKLISG [V31M] and report it.
stdout: 0.003

stdin: Find the measured abundance fitness of QGEKVEGLQAQALYPLRAKKDNHLNFNKNDVITVLEQQDMWWFGEVQGQKGWFPKSYVKLISG [W16L] and report it.
stdout: -0.046

stdin: Find the measured abundance fitness of QGEKVEGLQAQALYPWRAKKDNHLNFNKNDVITVLEQQEMWWFGEVQGQKGWFPKSYVKLISG [D39E] and report it.
stdout: -0.071

stdin: Find the measured abundance fitness of QGEKVEGLQAQALYPWRAKKDNHLNFNKNDVITVLEMQDMWWFGEVQGQKGWFPKSYVKLISG [Q37M] and report it.
stdout: 0.323

stdin: Find the measured abundance fitness of TGEKVEGLQAQALYPWRAKKDNHLNFNKNDVITVLEQQDMWWFGEVQGQKGWFPKSYVKLISG [Q1T] and report it.
stdout: -0.111

stdin: Find the measured abundance fitness of QGEKVEGLQAQALYPWRAKKDNHLNFNKNDVITVLEQQDPWWFGEVQGQKGWFPKSYVKLISG [M40P] and report it.
stdout: 0.025

stdin: Find the measured abundance fitness of QGEKVEGLQAQALYPWRASKDNHLNFNKNDVITVLEQQDMWWFGEVQGQKGWFPKSYVKLISG [K19S] and report it.
stdout: 0.008

stdin: Find the measured abundance fitness of QGEKVEGLQAQALYPNRAKKDNHLNFNKNDVITVLEQQDMWWFGEVQGQKGWFPKSYVKLISG [W16N] and report it.
stdout: -0.199

stdin: Find the measured abundance fitness of QGEKVEGLQAQALYPWRAKKDNHLNFNKNDVIVVLEQQDMWWFGEVQGQKGWFPKSYVKLISG [T33V] and report it.
stdout: -0.113

stdin: Find the measured abundance fitness of QGEKVEGLQAQALYPWRAKKDNHLNFNKNDVITVLEQQDMWWFGEVAGQKGWFPKSYVKLISG [Q47A] and report it.
stdout: 0.009

stdin: Find the measured abundance fitness of QGEKVEGLQAQALYPWRAKKDNHLNFNDNDVITVLEQQDMWWFGEVQGQKGWFPKSYVKLISG [K28D] and report it.
stdout: -0.145

stdin: Find the measured abundance fitness of QGEKVEGLQAQALYPWRAKKDNHLNFNKNDVITVLEQQDMWWFGEVQGQKGWFPKSGVKLISG [Y57G] and report it.
stdout: -0.572

stdin: Find the measured abundance fitness of QGEKVEGLQAQALYPWRAKKDNHLNFNKNDVITVLEQQDMWCFGEVQGQKGWFPKSYVKLISG [W42C] and report it.
stdout: -0.055

stdin: Find the measured abundance fitness of QGEKVEGLQAQALYPWRAKKDNHLNFNKNDVITVLGQQDMWWFGEVQGQKGWFPKSYVKLISG [E36G] and report it.
stdout: -0.076

stdin: Find the measured abundance fitness of QGEKVEGLQAQALYPWRAKKDNHLNFNKNDVIAVLEQQDMWWFGEVQGQKGWFPKSYVKLISG [T33A] and report it.
stdout: -0.071

stdin: Find the measured abundance fitness of QGEKVEGLQAQALYPWRAKKDNHLNFNKNDVITVLEQQDMWWFGEVQGQKGSFPKSYVKLISG [W52S] and report it.
stdout: -1.15

stdin: Find the measured abundance fitness of QGEKVEGLQAQALYPWRAKKDNHLNFNKNDVITVLEQQDMWWFGWVQGQKGWFPKSYVKLISG [E45W] and report it.
stdout: -0.274

stdin: Find the measured abundance fitness of QGEKVEGLQAQACYPWRAKKDNHLNFNKNDVITVLEQQDMWWFGEVQGQKGWFPKSYVKLISG [L13C] and report it.
stdout: -0.268

stdin: Find the measured abundance fitness of QGEKVEGLQAQALYPWRAKKDNHLKFNKNDVITVLEQQDMWWFGEVQGQKGWFPKSYVKLISG [N25K] and report it.
stdout: 0.115

stdin: Find the measured abundance fitness of QGEKVEGLQAQALYPWRAKKDNHLNFNKNDVITVLEQQDMWWFGEVQGQKGWMPKSYVKLISG [F53M] and report it.
stdout: -0.543

stdin: Find the measured abundance fitness of QGEKVEGLQAQALYPWRAKKDNHLNFNKNDVIHVLEQQDMWWFGEVQGQKGWFPKSYVKLISG [T33H] and report it.
stdout: -0.201

stdin: Find the measured abundance fitness of QGEKVEGLQAQALYPWRAKKDNHLNFNKNDVITVLEQVDMWWFGEVQGQKGWFPKSYVKLISG [Q38V] and report it.
stdout: -0.302

stdin: Find the measured abundance fitness of QGEKVEGLQAQALYPWRAKKDNHLNFNKNDVITVLEQQDGWWFGEVQGQKGWFPKSYVKLISG [M40G] and report it.
stdout: -0.109

stdin: Find the measured abundance fitness of QGEKVEGLQAQALYPWRADKDNHLNFNKNDVITVLEQQDMWWFGEVQGQKGWFPKSYVKLISG [K19D] and report it.
stdout: 0.026

stdin: Find the measured abundance fitness of QGEKVEGLQAQALYPWRAKKDNHLNFNKNDVITVLEQQDMWWFGEVQGQKGWVPKSYVKLISG [F53V] and report it.
stdout: -0.677

stdin: Find the measured abundance fitness of QGEKVEGLQAQALYPWRAKKDNHLEFNKNDVITVLEQQDMWWFGEVQGQKGWFPKSYVKLISG [N25E] and report it.
stdout: -0.08

stdin: Find the measured abundance fitness of QGEKVEGLQAQAAYPWRAKKDNHLNFNKNDVITVLEQQDMWWFGEVQGQKGWFPKSYVKLISG [L13A] and report it.
stdout: -0.271

stdin: Find the measured abundance fitness of QGEKVEGLQAQALYPWRAKKDNHLNFHKNDVITVLEQQDMWWFGEVQGQKGWFPKSYVKLISG [N27H] and report it.
stdout: -0.708

stdin: Find the measured abundance fitness of QGEKVEGLQAQALYPWRAKKDNHLNFNKNDVITVLEQQLMWWFGEVQGQKGWFPKSYVKLISG [D39L] and report it.
stdout: -0.385

stdin: Find the measured abundance fitness of QGKKVEGLQAQALYPWRAKKDNHLNFNKNDVITVLEQQDMWWFGEVQGQKGWFPKSYVKLISG [E3K] and report it.
stdout: -0.079

stdin: Find the measured abundance fitness of QGEKVEGLQAQALYPWRAKKDNHLNFNKNDVITVLEQQDMWWFGEVQGQKGWFPKSYVKLIRG [S62R] and report it.
stdout: -0.101

stdin: Find the measured abundance fitness of QPEKVEGLQAQALYPWRAKKDNHLNFNKNDVITVLEQQDMWWFGEVQGQKGWFPKSYVKLISG [G2P] and report it.
stdout: -0.423

stdin: Find the measured abundance fitness of QGEKVEGLQAQALYPWRAKKDNHLNFNKNDVITVLEQQDMWWFGEVQGQKGWFPKSYVRLISG [K59R] and report it.
stdout: -0.043

stdin: Find the measured abundance fitness of QGEKVEGLQAQALYPWRKKKDNHLNFNKNDVITVLEQQDMWWFGEVQGQKGWFPKSYVKLISG [A18K] and report it.
stdout: -0.059

stdin: Find the measured abundance fitness of QGEKVEGLQTQALYPWRAKKDNHLNFNKNDVITVLEQQDMWWFGEVQGQKGWFPKSYVKLISG [A10T] and report it.
stdout: -0.746

stdin: Find the measured abundance fitness of QGEKVEGLQAQALYPWRAKKDNHLNFNKNDVITVLEQQPMWWFGEVQGQKGWFPKSYVKLISG [D39P] and report it.
stdout: -0.297
